- Species: Homo sapiens
- assay.info: Selectivity index, ratio of IC50 for human PI3Kgamma to IC50 for human PI3Kdelta
property: Ratio IC50

COc1ccc(-c2nn(C(C)c3nc4cccc(F)c4c(=O)n3-c3cnn(C)c3)c3ncnc(N)c23)cc1F (racemic) ... 24

P. CCC(c1nc2cccc(F)c2c(=O)n1C1CC1)n1nc(-c2ccc(OC)c(OC)c2)c2c(N)ncnc21 (racemic)
Q. COc1ccc(-c2nn(C(C)c3nc4cccc(F)c4c(=O)n3CC(C)C)c3ncnc(N)c23)cc1F (racemic)
R. COc1ccc(-c2nn(C(C)c3nc4cccc(F)c4c(=O)n3C3CC3)c3ncnc(N)c23)cc1F (racemic)
S. CCC(c1nc2cccc(F)c2c(=O)n1C1CC1)n1nc(-c2ccc(OC)c(F)c2)c2c(N)ncnc21 (racemic)
*Q* Output the entries ranked by Ratio IC50 from maximum down to minimum. Could you list the labels in the order requested?
*A* Q, S, P, R
(Q: 114, S: 62, P: 27, R: 12)

Attribution: ChEMBL document CHEMBL4699641
